Assay: Example 2: erdosteine toxicity i.v. (lot 11)
Assay type: in vivo, Wistar rats
Details: both sexes, Wistar, in vivo, iv, 3500 mg/kg; rat, i.v.; read-out: LD50 of i.v. form of erdosteine
measuredMetric: LD50

Exam item: Would you kindly share the measured LD50 for O=C(O)CSCC(=O)NC1CCSC1=O (stereo not shown) [erdosteine, Erdosteine] ?
Marked response: > 3500 mg/kg

Where do the numbers come from? From patent US9427426B2.
